Target: T1, human CD8 alpha (CD8A) on primary human CD8+ T cells (human, UniProt P01732 22-235)
T1 construct: whole, on cells; also called hCD8A
T1 sequence (P01732 22-235): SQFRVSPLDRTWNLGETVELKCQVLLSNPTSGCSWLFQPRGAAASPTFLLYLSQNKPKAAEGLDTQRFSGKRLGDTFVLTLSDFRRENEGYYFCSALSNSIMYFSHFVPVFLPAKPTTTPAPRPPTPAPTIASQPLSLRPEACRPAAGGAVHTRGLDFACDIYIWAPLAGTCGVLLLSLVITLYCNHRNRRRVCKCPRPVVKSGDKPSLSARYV
Assay: flow cytometry, human CD8+ T cells
Protocol: Binding of the 190 ELISA hits to human and cynomologous monkey primary CD8 T cells was assessed by flow cytometry. The FN3 domain molecules were diluted to 2 μM and 0.2 μM in PBS and incubated with human or cynomologous monkey CD8+ T cells in 96-well format. […] Cells were gating on live cells and median fluorescence intensity of the bound Centyrins (PE channel) was calculated using Cytobank software.
metricName: Human T-cell Binding 0.2 uM (MFI)

Take a look at these entries with their results.
| binder | unitsOfMeasure | Human T-cell Binding 0.2 uM (MFI) |
| --- | --- | --- |
| P283FR9P1366_A1 (designed binder, FN3 domain) LPAPKNLVVSRVTEDSARLSWTAPDAAFDSFWITYPEWPVPGEAIVLTVPGSERSYDLTGLKPGTEYAVFIWGVKGGDASEPLSAIFTT | MFI | 516 |
| P283ER9P1365_A1 (designed binder, FN3 domain) LPAPKNLVVSRVTEDSARLSWTAPDAAFDSFGIAYVEWWHRGEAISLPVPGSERSYDLTGLKPGTEYNVIITGVKGGIPSHPLGAIFTT | MFI | 3860 |
| P283FR9P1366_G1 (designed binder, FN3 domain) LPAPKNLVVSRVTEDSARLSWTAPDAAFDSFYISYPELPVEGEAIVLTVPGSERSYDLTGLKPGTEYWVIIWGVKGGATSEPLSAIFTT | MFI | 650 |
| P283DR9P1364_F8 (designed binder, FN3 domain) LPAPKNLVVSRVTEDSARLSWTAPDAAFDSFAIAYPEWPPGEAIVLTVPGSERSYDLTGLKPGTEYFVIIYGVKGGWTSPPLSAIFTT | MFI | 458 |
| P283GR7P1367_B4 (designed binder, FN3 domain) LPAPKNLVVSRVTEDSARLSWTAPDAAFDSFSILYYELPPSGEAIVLTVPGSERSYDLTGLKPGTEYTVSIFGVKGGDNSFPLSAIFTT | MFI | 446 |
| P283BR9P1363_F4 (designed binder, FN3 domain) LPAPKNLVVSRVTEDSARLSWERIVQTPHFDSFLIQYQESEKVGEAIVLTVPGSERSYDLTGLKPGTEYTVSIYGVDVKWEGNRPVASNPLSAIFTT | MFI | 2960 |
| P283DR9P1364_H6 (designed binder, FN3 domain) LPAPKNLVVSRVTEDSARLSWTAPDAAFDSFIIAYPETPVRGEAIVLTVPGSERSYDLTGLKPGTEYFVIIIGVKGGQESFPLSAIFTT | MFI | 268 |
| P283ER9P1365_C1 (designed binder, FN3 domain) LPAPKNLVVSRVTEDSARLSWTAPDAAFDSFYIPYWESEVYGEAIALPVTGSERSYDLTGLKPGTEYQVSIIGVKGGVYSQPLAAIFTT | MFI | 644 |

a: P283FR9P1366_H5 (designed binder, FN3 domain) LPAPKNLVVSRVTEDSARLSWTAPDAAFDSFIYIENKVNGEAIVLTVPGSERSYDLTGLKPGTEYHVTIGGVKGGTESNTLSAIFTT
b: P283GR7P1367_B9 (designed binder, FN3 domain) LPAPKNLVVSRVTEDSARLSWTAPDAAFDSFEIWYHEYHPRGEAIVLTVPSSERSYDLTGLKPGTEYDVVISGVKGGHWSYPLSAIFTT
Ask: Among a and b , whose measured Human T-cell Binding 0.2 uM (MFI) is the smaller figure? Identify your selection by its label.
Result: a

A: P283DR9P1364_G10 (designed binder, FN3 domain) LPAPKNLVVSRVTEDSARLSWTAPDAAFDSFSIAYPEWPGSGEAIVLTVPGSERSYDLTGLKPGTEYFVVIFGVKGGSQSWPLSAIFTT
B: P283HR7P1368_G10 (designed binder, FN3 domain) LPAPKNLVVSRVTEDSARLSWTAPDAAFDSFGIAYVEWWHRGEAISLPVPGSERSYDLTGLKPGTEYWVTILGVKGGIISTPLGASFTT
Ask: Select the item with the higher value of Human T-cell Binding 0.2 uM (MFI) from the options A and B listed. Identify your selection by its label.
Result: B
(B: 753 MFI, A: 409 MFI)

A: P283ER9P1365_F4 (designed binder, FN3 domain) LPAPKNLVVSRVTEDSARLSWTAPDAAFDSFYIPYRESEFRGEAIALPVPGSERSYDLTGLKPGTKYSVIIIGVKGGEFSQPLGAIFTT
B: P283DR9P1364_A7 (designed binder, FN3 domain) LPAPKNLVVSRVTEDSARLSWTAPDAAFDSFRIAYPEWPVRGDAIVLTVPGSERSYDLTGLKPGTEYWVIIQGVKGGTDSFPLSAIFTT
Ask: Among A and B , whose measured Human T-cell Binding 0.2 uM (MFI) is the smaller figure? Identify your selection by its label.
Result: B
